Reported CC50 is given for each of the following compounds.
# Test protocol: in vitro
Only the number, expressed in µg/mL, is required.

// below: answered compounds
Cc1ccc(COC(=O)/C=C/c2ccc(O)cc2)cc1 [Compound 11, 4-methylbenzyl p-coumarate] :: 20.8
COCCOC(=O)/C=C/c1ccc(O)cc1 [Compound 5, methoxy-ethyl p-coumarate] :: 127
CC(C)OC(=O)/C=C/c1ccc(O)cc1 [Compound 4, isopropyl p-coumarate] :: 96.2
CCCCCOC(=O)/C=C/c1ccc(O)cc1 [Compound 7, pentyl p-coumarate] :: 16.1
CCCCCCCCCCCCOC(=O)/C=C/c1ccc(O)cc1 [Compound 10, dodecyl p-coumarate] :: 15.4
CCOC(=O)/C=C/c1ccc(O)cc1 [Compound 2, ethyl p-coumarate] :: 1.06

Alright, here's another compound for you.
Noted for CC(C)CCOC(=O)/C=C/c1ccc(O)cc1 [Compound 8, isopentyl p-coumarate] : its CC50 reads 19.6
